Ref: patent US11466006B2

- target-of-assay: Pi3K γ (Homo sapiens, UniProt P48736)
- Sequence (P48736 whole entry, canonical isoform): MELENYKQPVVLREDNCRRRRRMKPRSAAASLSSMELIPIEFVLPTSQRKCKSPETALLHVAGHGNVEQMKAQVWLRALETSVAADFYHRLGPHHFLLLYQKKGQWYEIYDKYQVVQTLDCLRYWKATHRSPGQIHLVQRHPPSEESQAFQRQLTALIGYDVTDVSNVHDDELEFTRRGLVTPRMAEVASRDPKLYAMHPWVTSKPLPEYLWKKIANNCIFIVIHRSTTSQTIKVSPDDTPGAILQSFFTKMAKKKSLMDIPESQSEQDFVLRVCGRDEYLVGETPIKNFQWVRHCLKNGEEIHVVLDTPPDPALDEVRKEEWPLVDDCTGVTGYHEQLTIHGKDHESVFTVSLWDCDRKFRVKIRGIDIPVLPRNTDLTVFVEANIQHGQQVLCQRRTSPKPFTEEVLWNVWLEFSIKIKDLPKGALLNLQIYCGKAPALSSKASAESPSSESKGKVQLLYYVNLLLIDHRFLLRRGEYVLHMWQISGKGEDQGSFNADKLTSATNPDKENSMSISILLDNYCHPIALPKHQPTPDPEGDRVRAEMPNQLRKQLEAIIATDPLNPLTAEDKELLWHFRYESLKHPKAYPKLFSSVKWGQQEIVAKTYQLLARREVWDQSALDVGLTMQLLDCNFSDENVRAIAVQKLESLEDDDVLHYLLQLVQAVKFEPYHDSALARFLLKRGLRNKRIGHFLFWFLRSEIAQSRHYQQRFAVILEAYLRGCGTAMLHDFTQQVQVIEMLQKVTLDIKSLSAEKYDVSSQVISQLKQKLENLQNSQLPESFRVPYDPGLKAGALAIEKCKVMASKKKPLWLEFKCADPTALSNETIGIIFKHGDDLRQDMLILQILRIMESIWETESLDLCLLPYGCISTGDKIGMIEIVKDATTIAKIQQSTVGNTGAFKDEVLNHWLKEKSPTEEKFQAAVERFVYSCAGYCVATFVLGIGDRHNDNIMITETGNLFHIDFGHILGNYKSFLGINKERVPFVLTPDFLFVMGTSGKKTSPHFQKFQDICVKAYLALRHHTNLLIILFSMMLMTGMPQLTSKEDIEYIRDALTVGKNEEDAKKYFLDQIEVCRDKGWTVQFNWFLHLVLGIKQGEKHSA
- test: fMLP induced CD63 expression in basophils from human whole blood
- Format: cell-based
- reported-conditions: n=10, read-out: IC50 for fMLP (PI3K γ), CD63 positive basophils
parameter: IC50

Prompt: IC50 of CC[C@H](Nc1ncnc2[nH]cnc12)c1oc2ccccc2c(=O)c1-c1cccc(F)c1 [Compound A1] on Pi3K γ (Homo sapiens, UniProt P48736)?
Response: < 40 nM

====

- System: Primary CLL cells
- test: Anti-cancer activity in human CLL cells (MTS cytotoxicity)
- Assay type: cell-based
- reported-conditions: CLL cell, 72 h, 10% FBS media, 3 days, read-out: median EC50, cytotoxicity in CLL cells
parameter: EC50

Prompt: EC50 of `CC[C@H](Nc1ncnc2[nH]cnc12)c1oc2ccccc2c(=O)c1-c1cccc(F)c1` on Primary CLL cells?
Response: < 700 nM

====

- target-of-assay: PI3K alpha (Mus musculus)
- Construct: endogenous in cells
- Sequence (P42337 whole entry): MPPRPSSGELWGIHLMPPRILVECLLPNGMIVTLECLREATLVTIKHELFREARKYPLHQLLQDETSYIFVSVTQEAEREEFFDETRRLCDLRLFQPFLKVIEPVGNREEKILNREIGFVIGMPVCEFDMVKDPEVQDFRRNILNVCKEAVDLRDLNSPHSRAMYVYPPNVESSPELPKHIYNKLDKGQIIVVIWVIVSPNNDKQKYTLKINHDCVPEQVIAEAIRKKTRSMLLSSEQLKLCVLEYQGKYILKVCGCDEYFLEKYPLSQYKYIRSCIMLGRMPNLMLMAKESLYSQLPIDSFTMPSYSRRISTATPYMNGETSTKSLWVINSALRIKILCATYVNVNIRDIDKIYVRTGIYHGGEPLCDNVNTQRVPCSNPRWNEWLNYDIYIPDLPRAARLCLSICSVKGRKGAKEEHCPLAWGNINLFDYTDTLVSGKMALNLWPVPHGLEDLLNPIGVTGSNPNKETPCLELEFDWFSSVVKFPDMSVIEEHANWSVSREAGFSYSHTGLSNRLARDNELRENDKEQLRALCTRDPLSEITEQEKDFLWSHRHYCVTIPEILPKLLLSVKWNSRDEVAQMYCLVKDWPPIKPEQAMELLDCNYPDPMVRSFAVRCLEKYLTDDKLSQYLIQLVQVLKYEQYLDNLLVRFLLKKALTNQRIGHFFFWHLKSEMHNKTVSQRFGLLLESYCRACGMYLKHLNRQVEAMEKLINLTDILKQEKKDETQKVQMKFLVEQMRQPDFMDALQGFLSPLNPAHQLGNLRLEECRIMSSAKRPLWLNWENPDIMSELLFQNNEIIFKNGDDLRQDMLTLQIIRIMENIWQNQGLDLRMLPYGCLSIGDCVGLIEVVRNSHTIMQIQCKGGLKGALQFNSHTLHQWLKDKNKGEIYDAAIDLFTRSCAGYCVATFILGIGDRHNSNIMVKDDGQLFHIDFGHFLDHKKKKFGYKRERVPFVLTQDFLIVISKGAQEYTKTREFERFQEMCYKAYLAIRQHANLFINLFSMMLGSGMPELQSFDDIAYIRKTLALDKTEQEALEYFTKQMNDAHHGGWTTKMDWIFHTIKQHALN
- Sequence (P26450 whole entry partner): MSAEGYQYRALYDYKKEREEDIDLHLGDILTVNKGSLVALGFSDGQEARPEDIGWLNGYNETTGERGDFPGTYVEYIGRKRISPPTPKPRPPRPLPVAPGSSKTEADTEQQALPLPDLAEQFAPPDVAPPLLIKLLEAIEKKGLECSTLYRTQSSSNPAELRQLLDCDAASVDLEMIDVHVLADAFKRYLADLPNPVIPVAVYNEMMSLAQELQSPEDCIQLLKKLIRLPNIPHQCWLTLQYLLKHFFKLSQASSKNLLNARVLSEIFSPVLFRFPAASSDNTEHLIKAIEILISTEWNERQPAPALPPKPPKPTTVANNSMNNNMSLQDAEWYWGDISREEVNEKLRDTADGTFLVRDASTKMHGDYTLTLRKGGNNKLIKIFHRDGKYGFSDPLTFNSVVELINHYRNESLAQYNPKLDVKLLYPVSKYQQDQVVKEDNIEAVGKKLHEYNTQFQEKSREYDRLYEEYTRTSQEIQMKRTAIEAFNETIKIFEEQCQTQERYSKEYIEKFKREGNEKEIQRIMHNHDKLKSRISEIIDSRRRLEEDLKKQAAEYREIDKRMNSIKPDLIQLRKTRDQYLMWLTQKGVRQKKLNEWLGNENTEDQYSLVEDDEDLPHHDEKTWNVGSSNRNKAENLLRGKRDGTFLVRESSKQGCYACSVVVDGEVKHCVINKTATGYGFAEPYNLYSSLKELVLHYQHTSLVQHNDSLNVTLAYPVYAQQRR
- test: PDGF induced Akt phosphorylation in 3T3 cells (PI3Kα selectivity)
- reported-conditions: read-out: Cellular IC50 PI3K alpha (PDGF induced pAKT in 3T3 fibroblasts)
parameter: IC50

Prompt: Entry under review: `CC[C@H](Nc1ncnc2[nH]cnc12)c1oc2ccccc2c(=O)c1-c1cccc(F)c1` . Reported IC50?
Response: > 10 µM

====

- target-of-assay: PI3Kδ (Homo sapiens)
- Sequence (O00329 whole entry, canonical isoform): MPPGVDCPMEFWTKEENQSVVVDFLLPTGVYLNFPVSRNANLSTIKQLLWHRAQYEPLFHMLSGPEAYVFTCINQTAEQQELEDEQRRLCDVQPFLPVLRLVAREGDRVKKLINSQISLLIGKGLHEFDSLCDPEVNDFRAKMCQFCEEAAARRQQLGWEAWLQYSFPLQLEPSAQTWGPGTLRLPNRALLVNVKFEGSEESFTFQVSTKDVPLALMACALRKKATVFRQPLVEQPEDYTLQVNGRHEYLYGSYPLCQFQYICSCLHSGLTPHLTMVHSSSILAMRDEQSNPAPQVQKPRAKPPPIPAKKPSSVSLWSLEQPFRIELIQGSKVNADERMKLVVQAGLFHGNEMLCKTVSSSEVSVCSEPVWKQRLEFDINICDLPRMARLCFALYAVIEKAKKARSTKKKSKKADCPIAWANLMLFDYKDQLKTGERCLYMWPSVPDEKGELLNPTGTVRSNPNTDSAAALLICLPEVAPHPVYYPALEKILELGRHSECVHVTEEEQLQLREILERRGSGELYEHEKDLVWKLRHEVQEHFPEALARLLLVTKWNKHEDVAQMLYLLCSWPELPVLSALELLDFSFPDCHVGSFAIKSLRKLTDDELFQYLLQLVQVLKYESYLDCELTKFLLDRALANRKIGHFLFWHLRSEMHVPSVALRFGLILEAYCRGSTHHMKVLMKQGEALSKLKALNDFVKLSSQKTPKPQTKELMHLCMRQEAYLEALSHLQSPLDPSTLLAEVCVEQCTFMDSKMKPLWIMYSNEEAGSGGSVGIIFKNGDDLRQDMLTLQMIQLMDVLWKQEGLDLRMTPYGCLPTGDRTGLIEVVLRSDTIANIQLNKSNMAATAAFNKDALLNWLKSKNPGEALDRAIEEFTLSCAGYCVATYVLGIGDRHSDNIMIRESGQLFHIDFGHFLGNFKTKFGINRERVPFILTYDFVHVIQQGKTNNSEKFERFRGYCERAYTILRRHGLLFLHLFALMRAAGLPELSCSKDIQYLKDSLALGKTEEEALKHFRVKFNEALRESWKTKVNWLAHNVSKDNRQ
- Sequence (P27986 whole entry partner, canonical isoform): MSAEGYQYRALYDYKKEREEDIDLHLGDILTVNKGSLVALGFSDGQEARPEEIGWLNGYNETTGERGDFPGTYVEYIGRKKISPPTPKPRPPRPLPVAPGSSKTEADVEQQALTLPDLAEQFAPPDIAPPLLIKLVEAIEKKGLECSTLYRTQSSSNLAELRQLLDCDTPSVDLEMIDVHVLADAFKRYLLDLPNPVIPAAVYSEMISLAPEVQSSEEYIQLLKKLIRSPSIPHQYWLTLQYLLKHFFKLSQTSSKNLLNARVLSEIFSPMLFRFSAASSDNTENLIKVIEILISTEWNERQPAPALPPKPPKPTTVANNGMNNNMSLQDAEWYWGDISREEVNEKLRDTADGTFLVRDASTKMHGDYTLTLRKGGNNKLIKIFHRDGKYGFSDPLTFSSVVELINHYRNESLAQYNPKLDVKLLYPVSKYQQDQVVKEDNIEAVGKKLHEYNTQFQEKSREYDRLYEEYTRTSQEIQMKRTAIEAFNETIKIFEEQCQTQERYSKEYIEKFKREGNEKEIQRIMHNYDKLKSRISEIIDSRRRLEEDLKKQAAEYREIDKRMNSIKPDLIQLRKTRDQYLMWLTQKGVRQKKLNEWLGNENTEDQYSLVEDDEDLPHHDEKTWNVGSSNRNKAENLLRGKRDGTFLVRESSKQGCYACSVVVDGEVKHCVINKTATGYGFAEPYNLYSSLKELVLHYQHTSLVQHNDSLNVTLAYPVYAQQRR
- test: Fluorescent (HTRF) determination of PI3 kinase enzyme activity, delta isoform
- Format: biochemical
- Set-up: purchased Millipore (assay kit)
- reported-conditions: Table 1, unit printed in cell; read-out: IC50 Pi3Kδ
parameter: IC50

Prompt: Entry under review: CC[C@@H](Nc1ncnc2[nH]cnc12)c1oc2ccccc2c(=O)c1-c1cccc(F)c1 [Compound A2] . Reported IC50?
Response: > 10 µM

====

- target-of-assay: Pi3K γ (Homo sapiens)
- test: Fluorescent (HTRF) determination of PI3 kinase enzyme activity, gamma isoform
- Type: biochemical
- Parameters: purchased Millipore (assay kit)
- reported-conditions: Table 1, unit printed in cell; read-out: IC50 Pi3K γ
- Description: Phosphoinositide 3 kinases (PI3K) belong to a class of lipid kinases that play a critical role in the regulation of several key cellular processes. […] The homogenous time resolved fluorescence (HTRF) assay allows detection of 3,4,5-triphosphate (PIP3) formed as a result of phosphorylation of phosphotidylinositol 4,5-biphosphate (PIP2) by PI3K isoforms such as α, β, γ or δ. […]
pIC50: −log10 of the molar value.
parameter: pIC50

Prompt: Entry under review: CC[C@@H](Nc1ncnc2[nH]cnc12)c1oc2ccccc2c(=O)c1-c1cccc(F)c1 [Compound A2] . Reported pIC50?
Response: < 5.00

====

- Test system: Primary CLL cells
- test: Anti-cancer activity in human CLL cells (MTS cytotoxicity)
- Type: cell-based
- reported-conditions: CLL cell, 72 h, serum-free medium, 3 days, read-out: median EC50, cytotoxicity in CLL cells
parameter: EC50

Prompt: Entry under review: CC[C@H](Nc1ncnc2[nH]cnc12)c1oc2ccccc2c(=O)c1-c1cccc(F)c1 [Compound A1] . Reported EC50?
Response: < 100 nM

====

- target-of-assay: Pi3K α (Homo sapiens)
- Construct: purchased Millipore (assay kit)
- test: Fluorescent (HTRF) determination of PI3 kinase enzyme activity, alpha isoform
- Assay type: biochemical
- reported-conditions: Table 1, HTRF
parameter: IC50

Prompt: IC50 of `CC[C@H](Nc1ncnc2[nH]cnc12)c1oc2ccccc2c(=O)c1-c1cccc(F)c1` on Pi3K α (Homo sapiens)?
Response: > 10000 nM
